B1: glmS ribozyme (parent)
chain: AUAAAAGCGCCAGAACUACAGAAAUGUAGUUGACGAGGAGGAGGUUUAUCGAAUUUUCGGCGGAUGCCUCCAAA

- Variants of: B1
- Measurement Notes: self-cleavage kobs at 2500 uM GlcN6P; higher = faster cleavage; RNA array
- Experimental Context: with glucosamine-6-phosphate
Fewer inactive variants are shown than the library holds.
Assay Metric: self-cleavage kobs at 2500 uM GlcN6P

| Item Sequence | self-cleavage kobs at 2500 uM GlcN6P |
| --- | --- |
| AUAAAAGCGCCGGAACUACAGAAAUGUAGUUGACGAGGAGAAGGUUUAUAGAAUUUUCGGCGGAUGCCUCCAAA [A12G G41A C50A] | < 1e-05 s⁻¹ |
| AUAAAAGAGCCAGAACUACAGAAAUGUAGUUGACCAGGAGGAGGUUUAUCGAAUUUUCGGCUGAUGCCUCCAAA [C8A G35C G62U] | < 1e-05 s⁻¹ |
| AUAAAAGCGCCCGAUCUACAGAAAUGUAGUUGACGAGGAGGACGUUUAUCAAAUUUUCGGCGGAUGCCUCCAAA [A12C A15U G43C G51A] | < 1e-05 s⁻¹ |
| AUAAAAGCGCCAGAACUACAGAAAUGUAGUUGACGAGGAGGACGUUUAUCGAAUUUUCCGCGGAUGCCUCCAAA [G43C G59C] | < 1e-05 s⁻¹ |

Could I get self-cleavage kobs at 2500 uM GlcN6P for every one of these entries?
1. AUAAAAGCGCCAGAACUACAGAAAUGUAGUUGACGAGGAGGAGGUUUUUUGAAUUCUCGGCGACAGCCUCCAAA [A48U C50U U56C G63A A64C U65A]
2. AUAAAAGCGCCAGAACUACAGAAAUGUAGUUGACGAGGAGGAGCUUUGUCGACUUUUCUGCGGAUGCCUCCAAA [G44C A48G A53C G59U]
3. AUAAAUGAGCCAGAACUACAGAAAUGUAGUUGACGAGGAGGAGGUUUAUCGAAUUUUCGGCGGUUGCCUCCAAA [A6U C8A A64U]
4. AUAAAAGCGCCAGUACUACAGAAAUGUACUUGACGAGGAGGAGUUUUAUCGAAUUUUCGGCGGAUGCCUCCAAA [A14U G29C G44U]
5. AUAAAAGCGCCAGAACUACAGAAAUGUAGUUGAAGAGGAGGAGGUUUAUUGAAUUUUCGGCGGAUGACUCCAAA [C34A C50U C67A]
6. AUAAAAGCGCCAGAACUACAGAAAUGUAGUUUACGAGGAGGAGGUAUAUUGAAUUUUCGGCGGAUGCCUCCAAA [G32U U46A C50U]

Solution:
["< 1e-05 s⁻¹", "< 1e-05 s⁻¹", "< 1e-05 s⁻¹", "< 1e-05 s⁻¹", "< 1e-05 s⁻¹", "< 1e-05 s⁻¹"]
